src = PubChem BioAssay (EPA / NIEHS)

Read-out: Vascular cell adhesion molecule 1 (VCAM1), VCAM1 (gene 7412)
protocol: BSK_LPS_VCAM1: BioMAP Diversity Plus: LPS Assay for Vascular cell adhesion molecule 1 (VCAM1) Biomarker Activity (AID 2283086)
experimental.context: primary human HUVEC with PBMC; actives raise or lower the signal
Procedure: BSK_LPS is a cell-based, multiplexed-readout assay that uses umbilical vein endothelium and peripheral blood mononuclear cells, a human vascular primary cell co-culture, with measurements taken at 24 hours after chemical dosing in a 96-well plate.BSK_LPS_VCAM1 is an assay component measured in the BSK_LPS assay. It measures VCAM-1 antibody related to regulation of gene expression using ELISA technology.Data from the assay component BSK_LPS_VCAM1 was analyzed into 1 assay endpoint. […]
Activity calls are given as the source filed them. The calls were made as follows: active = hit-call score of the fitted dose curve at least 0.9, where 1 is the maximum; inactive = score below 0.9.
Response enum: label 1 for active, label 0 for inactive

• Cc1oc(-c2ccccc2)nc1CCOc1cccc2c1ccn2CCC(=O)O = label 0
• CCNc1cccc(C)c1 = label 0
• COc1ccc(C)cc1N = label 0
• CC(=O)OCCOCCOCCOC(C)=O = label 0
• CC(=O)C(C)=CC1C(C)=CCCC1(C)C (centres undefined) = label 0

[in] Short answer needed: outcome of this test for O=c1c(O)c(-c2ccc(O)c(O)c2)oc2cc(O)cc(O)c12 ?
[out] label 0

[in] Call for entry Cc1nc(C)nc(N2C[C@@H](C)N(c3ccnc([C@@H](C)O)n3)[C@@H](C)C2)n1 :
[out] label 0

[in] // param item: CCCCCCCCCCCCCCCCCC(=O)O ; yields the recorded call
[out] label 0

[in] Hi, do you know how Cc1cc(=O)[nH]c(=S)[nH]1 came out in this test?
[out] label 0

[in] # lookup: test call for C=CCc1ccc(O)c(OC)c1
[out] label 0

[in] Assay outcome for COc1cc(-c2nc(NC(=O)c3cc4cc(C)cc(C)c4n3CC(=O)O)sc2CCC2CCCCC2)c(OC)cc1Cl : what was it?
[out] label 1

[in] Just curious, what result did Cc1c(C(=O)O)c(O)cc2c1C(=O)c1c(O)c([C@@H]3O[C@H](CO)[C@@H](O)[C@H](O)[C@H]3O)c(O)c(O)c1C2=O get here?
[out] label 0

[in] Each molecule tested received a call. Report the one for CCCCOC(=O)CCCCCCCCC(=O)OCCCC .
[out] label 0

[in] Hey, what did the test say about CC(C)c1ccc(C(=O)N=C(N)N)cc1S(C)(=O)=O ?
[out] label 0

[in] Outcome? CCCCCCCCCCC
[out] label 0

[in] Could you kindly confirm the outcome this assay logged for CCCCCCCC=O ?
[out] label 0

[in] What call does the record list for Oc1ccc2c(c1)OC[C@@H](N1CCC(O)(c3ccc(F)cc3)CC1)[C@H]2O ?
[out] label 0

[in] Given CCOC(=O)C(C)(C)Oc1ccc(Cl)cc1 , state the outcome it received in this test.
[out] label 0

[in] How was COc1ccc2c(c1)c(CC(=O)O)c(C)n2C(=O)c1ccc(Cl)cc1 classified in this test?
[out] label 0

[in] Hi team, can someone confirm the assay call for Oc1ccc2ccccc2c1N=Nc1ccccc1 ?
[out] label 0

[in] Any idea what this test logged for NCCO ?
[out] label 0

[in] Would you mind telling me which call this test gave CCCCCCCCCCO ?
[out] label 0

----------
Read-out: Apoptosis regulator Bcl-2 (Homo sapiens)
protocol: LTEA_HepaRG_BCL2: Life Technologies and Expression Analysis (LTEA) Assay for Bcl-2 gene using HepaRG (AID 2283475);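 also: BCL2 transcript by TaqMan qRT-PCR normalised to ACTB GAPDH and POLR2A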
experimental.context: mRNA level, 48 h; actives raise or lower the signal
Activity calls are given as the source filed them. Rule for the calls: active = hit-call score of the fitted dose curve at least 0.9, where 1 is the maximum; inactive = score below 0.9.
Your reply should match one of these outcome classes. active, inactive

Illustrative cases are given below, each with its answer.
- CCCCN(CCCC)CCCC: inactive
- CNC(=O)[C@H]1O[C@@H](n2cnc3c(NCc4cc(Cl)ccc4OCc4cc(C)no4)ncnc32)[C@H](O)[C@@H]1N: inactive
- COCCOCCOC: active
- CCCCOC(=O)CCCCCCCCC(=O)OCCCC: inactive
- COc1cc(-c2nc(NC(=O)c3cc4cc(C)cc(C)c4n3CC(=O)O)sc2CCC2CCCCC2)c(OC)cc1Cl: active
- CCCCCCCCCCCCCCCCCC(=O)O: inactive
- COc1ccc2c(c1)c(CC(=O)O)c(C)n2C(=O)c1ccc(Cl)cc1: inactive
- CCCCCC(=O)O: inactive

[in] Lab log entry: CN1CCCC1=O — outcome as called in the assay?
[out] inactive

[in] What is the recorded call for this molecule in the test? Nc1ccc2c(c1)C(=O)c1ccccc1C2=O
[out] inactive

[in] # outcome recorded in this test, key = CCCCCCCCCCO
[out] inactive

[in] What did the test return for O=[N+]([O-])C(CO)(CO)CO ?
[out] inactive

[in] Please share the test call associated with NC(=O)Cn1c(=O)cc(CCN2CCN(c3nccc4sccc34)CC2)c2ccc(F)cc21 .
[out] active

[in] I'd appreciate the recorded outcome for CCCCCCCCCCCCCO from this test.
[out] inactive

[in] I would be grateful if you could indicate the recorded call for Cc1nc(C)nc(N2C[C@@H](C)N(c3ccnc([C@@H](C)O)n3)[C@@H](C)C2)n1 .
[out] inactive
